Where these numbers come from: ChEMBL document CHEMBL5058577

- Test system: U2OS
- protocol.description: Multiplex assay against U2OS
- Format: toxicity, cell-based
- experimental.context: human, 24 h, 10 µM, compound concentration 10 uM, replicate 2
Lab note: anything with Population Mitochondria Different-Phenotype (%) at or over 20% counts as Condition met; the rest go in Condition not met.

Cc1nc2ccc(Oc3ccc(F)cc3)cc2c(=O)n1C[C@H]1CCCN(C(C)C)C1.Cl | Condition met
Cc1ccc(/C(=C\CN2CCCC2)c2ccccn2)cc1 | Condition not met
Cl.Clc1ccc2nsnc2c1NC1=NCCN1 [TIZANIDINE HYDROCHLORIDE] | Condition not met
CCCn1c(=O)c2[nH]c(C3CCCC3)nc2n(CCC)c1=O | Condition not met
CC[C@H]1OC(=O)[C@H](C)[C@@H](O[C@H]2C[C@@](C)(OC)[C@@H](O)[C@H](C)O2)[C@H](C)[C@@H](O[C@@H]2O[C@H](C)C[C@H](N(C)C)[C@H]2O)[C@@]2(C)CC(C)=C(O2)[C@H](C)[C@@H](O)[C@]1(C)O | Condition met
O=C(O)Cc1ccccc1Nc1c(Cl)cccc1Cl | Condition not met
CCNC1(C(N)=O)CCN(c2ncnc3c2nc(-c2ccccc2Cl)n3-c2ccc(Cl)cc2)CC1 | Condition met
c1cc(OCCCN2CCCCC2)ccc1CN1CCCCC1 | Condition not met

### Prompt Evaluate O=S(=O)(c1ccccc1)c1cnc2c(N3CCNCC3)cccc2c1 [INTEPIRDINE] : Population Mitochondria Different-Phenotype (%) at minimum 20%?
### Response Condition not met

### Prompt Evaluate CSc1ccccc1N1CCN(CCCCCC(=O)NC2CCCc3ccccc32)CC1.Cl (configuration not stated) : Population Mitochondria Different-Phenotype (%) at minimum 20%?
### Response Condition met

### Prompt Evaluate O=C1COc2nccc(-c3ccccc3F)c2CN1Cc1cc(C(F)(F)F)cc(C(F)(F)F)c1 : Population Mitochondria Different-Phenotype (%) at minimum 20%?
### Response Condition not met

### Prompt Evaluate CC1(COc2ccc3c(c2)ncn3-c2ccc3cccc(N4CCC(N)CC4)c3n2)COC1 : Population Mitochondria Different-Phenotype (%) at minimum 20%?
### Response Condition met

###

- Tested on: HEK-293T
- protocol.description: Multiplex assay against HEK293T
- Format: toxicity, cell-based
- experimental.context: human, 48 h, 1 µM, compound concentration 1 uM, replicate 1
I'd be grateful if you could share measured Population Membrane Permeable-Phenotype (%) for these entries.
Answers are plain numbers, in %.

Oc1c(CN2CCN(c3ccccn3)CC2)cc(Cl)c2cccnc12 | 0
N[C@@]1(C(=O)O)CO[C@H]2[C@H](C(=O)O)[C@H]21 [LY-379268] | 1
CCOc1c2c(c(OCC)c3ncccc13)CN(c1ccc(CS(=O)(=O)NC(=O)Cc3ccccc3OC)cc1C)C2=O | 0
Cl.Clc1ccc2nsnc2c1NC1=NCCN1 [TIZANIDINE HYDROCHLORIDE] | 3
CN1CCN(c2nc3cc(C(F)(F)F)ccc3n3cccc23)CC1.O=C(O)/C=C\C(=O)O.O=C(O)/C=C\C(=O)O | 2

List the reported Population Membrane Permeable-Phenotype (%) of each compound below.
1. CC[C@H]1OC(=O)[C@H](C)[C@@H](O[C@H]2C[C@@](C)(OC)[C@@H](O)[C@H](C)O2)[C@H](C)[C@@H](O[C@@H]2O[C@H](C)C[C@H](N(C)C)[C@H]2O)[C@@]2(C)CC(C)=C(O2)[C@H](C)[C@@H](O)[C@]1(C)O
2. O=C1COc2nccc(-c3ccccc3F)c2CN1Cc1cc(C(F)(F)F)cc(C(F)(F)F)c1
3. CSc1ccccc1N1CCN(CCCCCC(=O)NC2CCCc3ccccc32)CC1.Cl (configuration not stated)
4. CC(C)(C)c1ccc(S(=O)(=O)Nc2ccc(Cl)cc2C(=O)c2cc[n+]([O-])cc2)cc1 [VERCIRNON]

### Response
[0, 0, 0, 0]
